# Tested on: SNB-19 CNS
# experiment-notes: NCI tumour cell line growth inhibition, 48 h
property: TGI

# example entries with known answers
{"compound": "COc1cccc(C(=O)N[C@@H]2[C@H](O)[C@@H](CO)O[C@H]2n2cnc3c(N)ncnc32)c1", "TGI": "> 100 µM"}
{"compound": "Cc1nc(N(CCO)CCO)c2sc(=S)n(-c3ccccc3)c2n1", "TGI": "> 100 µM"}
{"compound": "Cc1cc(C#N)c(Nc2ccccc2[N+](=O)[O-])s1", "TGI": "> 100 µM"}
{"compound": "N#CC(C(=O)CCC(=O)Nc1ccc(Cl)c(Cl)c1)c1ccc(Cl)cc1 (stereo not given)", "TGI": "> 100 µM"}
{"compound": "Cc1cc(Cl)ccc1Nc1nc(C(F)(F)F)ccc1C(=O)Nc1cccc(C(F)(F)F)c1", "TGI": "15.8 µM"}

Quick one: TGI for COC(=O)[C@@H]1[C@H](O)CC[C@H]2[C@@]1(C)CC[C@@H](C)[C@]2(COC(C)=O)CC(=O)c1ccoc1 ?
> 50 µM

Quick one: TGI for O=C1C=C(OCCCl)C(=O)c2c(O)ccc(O)c21 ?
2.56 µM

Quick one: TGI for CN(C)Cc1[nH]c2ccccc2c1C(=O)c1ccccc1 ?
> 100 µM
